TESTED TARGET: T1, rat BMPR1B overexpressed on the surface of HEK293T cells (N-terminal Asp-Lys epitope tag, … (rat, UniProt A0A8I6A0G0 62-550))
T1 construct: whole, on cells
T1 sequence (chain, as listed by the source): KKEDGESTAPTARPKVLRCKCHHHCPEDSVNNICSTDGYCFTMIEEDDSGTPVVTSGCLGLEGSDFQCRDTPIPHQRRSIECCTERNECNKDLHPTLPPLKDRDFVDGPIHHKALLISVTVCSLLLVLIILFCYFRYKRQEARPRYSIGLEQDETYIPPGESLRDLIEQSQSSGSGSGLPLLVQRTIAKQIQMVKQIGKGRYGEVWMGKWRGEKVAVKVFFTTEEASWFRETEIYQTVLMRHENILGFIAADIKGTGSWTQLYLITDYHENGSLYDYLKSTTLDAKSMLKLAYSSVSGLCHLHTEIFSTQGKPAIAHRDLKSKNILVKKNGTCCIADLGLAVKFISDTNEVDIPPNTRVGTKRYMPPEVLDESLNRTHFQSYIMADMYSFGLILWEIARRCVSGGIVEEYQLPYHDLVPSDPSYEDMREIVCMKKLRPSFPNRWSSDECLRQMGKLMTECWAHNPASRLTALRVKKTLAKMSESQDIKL
EXPERIMENT DESCRIPTION: flow cytometry
This section presents binders with their documented Flow cytometry MFI values.
Answer field: number only, no words.

According to the records, this binder SC91.3 (murine anti-BMPR1B antibody) (antibody, V domains shown, Murine hybridoma antibody) VH: QVQLQQPGAELVKPGASVKLSCKASGYTFTSYWMQWVKQRPGQGLEWIGEIDPSDSYTLYNQKFKGKATLTVDTSSSTAYMQLSSLTSEDSAVYFCARFGYYIEYWGQGTTLTVSS VL: DVVMTQTPLSLPVSLGDQASISCRSSQSLVHSTGNTYLHWYLQKPGQSPKLLIYKVSNRFSGVPDRFSGSGSGTDFTLKISRVEAEDLGVYFCSQSTHVPFTFGSGTKLEIK displays Flow cytometry MFI of 5840

According to the records, this binder SC91.9 (murine anti-BMPR1B antibody) (antibody, V domains shown, Murine hybridoma antibody) VH: QVQLQQPGAELVKPGASVKLSCKASGYTFISYWMHWVKQRPGQGLEWIGMIHPNSGSTNYNESFKSKATLTVDKSSSTAYMQLSSLTSEDSAVYYCARDLLIATVVVTPYFAYWGQGTILTVSS VL: DIQMTQTTSSLSASLGDRVTISCRASQDISNFLNWYQQKPDGTIKFLIYYTSRLHSGVPSRFSGSGSGTDYSLTIRNLEQEDIATYFCQQGNTLPYTFGGGTKLEIK displays Flow cytometry MFI of 5270

According to the records, this binder SC91.1 (murine anti-BMPR1B antibody) (antibody, V domains shown, Murine hybridoma antibody with a kappa light chain) VH: QVQLQQPGAELVKPGASVKLSCKASGYTFTSYWMQWVKQRPGQGLEWIGEIDPSDNYTLYNQKFKGKATLTVDTSSSTAYMQLSSLTSEDSAVYYCARFGYYVDYWGLGTTLTVSS VL: DVVMTQTPLSLPVSLGDQASIFCRSSQSLVHSTGNTYLHWYLQKPGQSPKLLIYKVSNRFSGVPDRFSGSGSGTDFTLKISRVEAEDLGVYFCSQSTHVPFTFGSGTKLEIK displays Flow cytometry MFI of 5080
